Reported switch fluorescence ratio values are given for each entry in this list.
test system: ATP; assay: switch fluorescence ratio, 500 uM ATP over buffer (Cy3 cluster intensity, sum of 5 cycles each) (fold (ratio)); higher = stronger signal-on switching upon ATP binding; sequences stand for … in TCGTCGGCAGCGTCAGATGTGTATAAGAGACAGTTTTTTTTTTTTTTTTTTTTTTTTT…TC; conditions: aptamer strand: ATP DNA aptamer (quencher-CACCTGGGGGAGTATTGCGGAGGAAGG + anchor), 100 nM annealed; ATP concentration: 500 uM;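 further: ATP exposure 15 min at 22 °C before imaging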
Answer with a number only.

Use these answered entries as a reference point.
biosequence | switch fluorescence ratio
GTGTTGGCTT | 0.995
GCTAATTGGG | 1
ATACTCTGTT | 0.993
GGGCTATGCT | 1
CGGGGCAAGG | 0.984

switch fluorescence ratio for TTTAAAGTGG ? 0.98

switch fluorescence ratio for GCTTCAGAGT ? 1

switch fluorescence ratio for TTTGATTCAC ? 1.02

switch fluorescence ratio for GTGACAGAGG ? 1.02

switch fluorescence ratio for CATATGCGTA ? 0.986

switch fluorescence ratio for GGTTATTCGG ? 0.993

switch fluorescence ratio for GCATCTCGCG ? 1.01

switch fluorescence ratio for TGGTGGGAAT ? 1.02

switch fluorescence ratio for GAGTAACCAG ? 0.979
